Target: UniProt Q9Y210
Sequence (Q9Y210 1-931): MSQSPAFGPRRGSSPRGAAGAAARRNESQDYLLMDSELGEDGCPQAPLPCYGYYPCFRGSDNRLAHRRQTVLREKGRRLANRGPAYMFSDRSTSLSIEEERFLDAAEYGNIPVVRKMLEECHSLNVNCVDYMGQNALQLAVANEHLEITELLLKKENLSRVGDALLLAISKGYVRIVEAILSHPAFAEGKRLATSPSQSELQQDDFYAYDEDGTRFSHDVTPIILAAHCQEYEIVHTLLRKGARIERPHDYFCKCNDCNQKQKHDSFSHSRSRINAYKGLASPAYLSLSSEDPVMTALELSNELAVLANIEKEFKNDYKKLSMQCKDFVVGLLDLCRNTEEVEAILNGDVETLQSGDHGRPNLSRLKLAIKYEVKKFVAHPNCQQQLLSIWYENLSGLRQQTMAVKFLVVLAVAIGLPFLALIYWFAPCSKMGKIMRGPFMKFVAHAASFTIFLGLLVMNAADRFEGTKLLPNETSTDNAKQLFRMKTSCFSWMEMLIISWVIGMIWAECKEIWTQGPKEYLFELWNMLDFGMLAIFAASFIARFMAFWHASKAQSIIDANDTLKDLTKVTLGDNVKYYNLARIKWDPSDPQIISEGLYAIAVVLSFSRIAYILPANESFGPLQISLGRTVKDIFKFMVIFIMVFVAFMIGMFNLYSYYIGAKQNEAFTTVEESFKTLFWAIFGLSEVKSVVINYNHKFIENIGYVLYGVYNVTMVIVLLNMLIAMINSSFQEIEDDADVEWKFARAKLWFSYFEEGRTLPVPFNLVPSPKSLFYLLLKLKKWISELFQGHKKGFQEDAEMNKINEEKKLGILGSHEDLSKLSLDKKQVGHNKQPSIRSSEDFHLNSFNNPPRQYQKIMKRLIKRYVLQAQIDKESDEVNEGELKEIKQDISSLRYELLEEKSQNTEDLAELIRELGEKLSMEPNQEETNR
Test: TRPC6 calcium flux assay (FLIPR, OAG-stimulated calcium influx)
Details: HEK293 cells stably transfected with human TRPC6, read-out: hTRPC6 Potency
pIC50: −log10 of the molar value. Structures can show the parent of a compound that is named as a salt.
// reported pIC50 for each item listed
recorded_endpoint: pIC50

1) COc1cc(F)cc2nc(N3CC[C@@H](F)[C@H](N)C3)n(Cc3ccc(C#N)cn3)c12 = 6.12
2) Cc1csc(Cn2c(N3CC[C@@H](F)[C@H](N)C3)nc3cc(F)c(F)cc32)n1 = 7.32
3) N#Cc1ccc(Cn2c(N3CCC(F)(F)[C@H](N)C3)nc3c(Cl)cc(Cl)cc32)nc1 = 9.58
4) C[C@H](c1ccc(Cl)cn1)n1c(N2CC[C@@H](F)[C@H](N)C2)nc2ccccc21 [Example 215, hydrochloride] = 6.23
5) N[C@@H]1CCCN(c2nc3ccccc3n2Cc2ccc(C(F)(F)F)cc2)C1 = 5.56
6) Cc1nnc(Cn2c(N3CC[C@@H](F)[C@H](N)C3)nc3cc(F)ccc32)s1 = 6.42
7) Cc1nc(C)c(Cn2c(N3CC[C@@H](F)[C@H](N)C3)nc3ccc(F)cc32)s1 = 6.00
8) Cc1ccc2nc(N3CC[C@@H](F)[C@H](N)C3)n(Cc3ccc(C#N)cn3)c2c1 = 9.10
9) Cc1nnc(Cn2c(N3CC[C@@H](F)[C@H](N)C3)nc3cc(F)c(F)cc32)n1C = 6.13
10) Cc1nnc(Cn2c(N3CC[C@@H](F)[C@H](N)C3)nc3cc(F)cnc32)s1 = 5.84
11) CC(c1ccc(C#N)cc1)n1c(N2CCC[C@H](N)C2)nc2ccccc21 (mixture of isomers) = 7.69
12) N[C@@H]1CN(c2nc3ccc(F)cc3n2CC(=O)N2CCC2)CC[C@H]1F = 7.59
13) CN[C@@H]1CN(c2nc3cc(C#N)ccc3n2Cc2ncc(Cl)cn2)CC[C@H]1F = 6.65

---

Target: human TRPC6 (Homo sapiens)
Sequence (Q9Y210 1-931): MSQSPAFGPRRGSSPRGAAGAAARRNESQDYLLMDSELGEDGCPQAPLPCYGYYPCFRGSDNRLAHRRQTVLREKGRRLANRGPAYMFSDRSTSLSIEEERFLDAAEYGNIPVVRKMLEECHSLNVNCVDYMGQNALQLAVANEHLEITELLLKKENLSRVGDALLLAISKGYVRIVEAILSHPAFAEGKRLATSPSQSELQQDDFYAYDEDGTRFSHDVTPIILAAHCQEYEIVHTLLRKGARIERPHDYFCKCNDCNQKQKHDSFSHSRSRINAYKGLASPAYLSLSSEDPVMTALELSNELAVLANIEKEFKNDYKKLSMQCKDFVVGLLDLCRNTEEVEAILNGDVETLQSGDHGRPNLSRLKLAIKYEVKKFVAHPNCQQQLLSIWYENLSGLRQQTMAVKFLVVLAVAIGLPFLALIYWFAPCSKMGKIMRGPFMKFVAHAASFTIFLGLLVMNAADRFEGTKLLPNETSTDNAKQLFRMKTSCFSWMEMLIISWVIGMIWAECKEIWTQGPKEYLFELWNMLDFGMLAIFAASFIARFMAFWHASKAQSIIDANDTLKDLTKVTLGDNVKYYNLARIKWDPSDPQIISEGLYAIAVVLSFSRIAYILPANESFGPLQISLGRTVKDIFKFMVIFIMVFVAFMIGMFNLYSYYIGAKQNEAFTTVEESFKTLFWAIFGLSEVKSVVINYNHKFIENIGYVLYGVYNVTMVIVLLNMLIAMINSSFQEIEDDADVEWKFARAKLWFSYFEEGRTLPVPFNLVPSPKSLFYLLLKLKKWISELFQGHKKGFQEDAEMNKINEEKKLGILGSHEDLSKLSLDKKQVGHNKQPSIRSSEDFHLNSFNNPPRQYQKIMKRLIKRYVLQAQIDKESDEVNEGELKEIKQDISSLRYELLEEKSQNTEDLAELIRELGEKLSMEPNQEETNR
Experiment: TRPC6 calcium flux assay (FLIPR, OAG-stimulated calcium influx)
Settings: HEK293 cells stably transfected with human TRPC6, read-out: hTRPC6 Potency
Structures can show the parent of a compound that is named as a salt.
IC50 less than 100 nM is yes (1); IC50 greater than or equal to 100 nM is no (0).

1. CN(CCF)C(=O)Cn1c(N2CC[C@@H](F)[C@H](N)C2)nc2cc(F)c(F)cc21 [Example 606] = yes (1)
2. CC(C)C1CCN1C(=O)Cn1c(N2CC[C@@H](F)[C@H](N)C2)nc2cc(F)c(F)cc21 (stereo partly shown) [Example 625] = no (0)
3. N#Cc1ccc(Cn2c(N3CCC(F)(F)[C@H](N)C3)nc3ccc(Cl)cc32)nc1 [Example 12] = yes (1)
4. N[C@@H]1CN(c2nc3cc(F)c(F)cc3n2Cc2nnc(C3CC3)o2)CC[C@H]1F [Example 581] = no (0)
5. COC[C@@H]1COCCN1C(=O)Cn1c(N2CC[C@@H](F)[C@H](N)C2)nc2ccc(F)cc21 [Example 680] = no (0)
6. N#Cc1ccc(Cn2c(N3CC[C@@H](F)[C@H](N)C3)nc3ncc(C(F)(F)F)cc32)nc1 [Example 499] = yes (1)
7. COc1ccc2nc(N3CCC[C@H](N)C3)n(Cc3ccc(C#N)cc3)c2n1 [Example 404, hydrochloride] = yes (1)
8. CN(C(=O)Cn1c(N2CC[C@@H](F)[C@H](N)C2)nc2cc(F)c(F)cc21)[C@H]1CC[C@H](O)CC1 [Example 637] = no (0)
9. C[C@@H](c1ccc(C#N)cc1)n1c(N2CCC[C@H](N)C2)nc2ccccc21 [Example 314, hydrochloride] = no (0)
10. N[C@@H]1CN(c2nc3ccc(C(F)(F)F)cc3n2CC(=O)N2CCC2)CC[C@@H]1F [Example 308] = no (0)
11. CN[C@@H]1CN(c2nc3ccc(C#N)cc3n2Cc2ncc(Cl)cn2)CC[C@H]1F [Example 283] = yes (1)
12. C[C@@H](c1ccc(C#N)cn1)n1c(N2CC[C@H]3OCCN[C@@H]3C2)nc2cc(F)cc(F)c21 [Example 274] = yes (1)
13. CN(C(=O)Cn1c(N2CC[C@@H](F)[C@H](N)C2)nc2cc(F)c(F)cc21)c1nccs1 [Example 501] = yes (1)
14. N[C@@H]1CN(c2nc3cc(F)cnc3n2Cc2ncc(Cl)cn2)CC[C@H]1F [Example 583] = no (0)
15. C[C@H](c1ccc(Cl)c(Cl)c1)n1c(N2CC[C@@H](F)[C@H](N)C2)nc2cc(F)c(F)cc21 [Example 332] = no (0)
16. COc1ccc2nc(N3CC[C@@H](F)[C@H](N)C3)n(CC(=O)N(C)C)c2c1 [Example 448] = no (0)
17. N#Cc1ccc(Cn2c(N3CC[C@@H](F)[C@H](N)C3)nc3cc(Cl)c(OC(F)(F)F)cc32)nc1 [Example 125] = yes (1)
18. CN[C@H]1CCCN(c2nc3ccccc3n2Cc2ccc(C#N)cn2)C1 [Example 116] = yes (1)
